B1: library; a variant is named by its letters at N, in order (parent)
chain: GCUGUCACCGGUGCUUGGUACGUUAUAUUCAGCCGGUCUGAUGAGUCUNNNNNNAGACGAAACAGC

Variants of: B1
Assay remarks: normalized RNA/DNA level with ligand (relative to sTRSVctl = 100) (log10 (% of sTRSVctl)); HEK293T overexpressing SLC46A1; ligand concentration (+) RNA-Seq: 6 mM; higher = less ribozyme self-cleavage, higher mRNA level
Recorded conditions: with (6R,S)-folinic acid; ligand present: yes
Give measured normalized RNA/DNA level with ligand (log10) for each item. Keep answers brief.
One number for each entry.

Sample records with normalized RNA/DNA level with ligand (log10):
GCUGUCACCGGUGCUUGGUACGUUAUAUUCAGCCGGUCUGAUGAGUCUAGGAACAGACGAAACAGC [AGGAAC] :: 2.02
GCUGUCACCGGUGCUUGGUACGUUAUAUUCAGCCGGUCUGAUGAGUCUCUUUCUAGACGAAACAGC [CUUUCU] :: 1.99
GCUGUCACCGGUGCUUGGUACGUUAUAUUCAGCCGGUCUGAUGAGUCUCAGCACAGACGAAACAGC [CAGCAC] :: 1.98
GCUGUCACCGGUGCUUGGUACGUUAUAUUCAGCCGGUCUGAUGAGUCUAAACUUAGACGAAACAGC [AAACUU] :: 2.02
GCUGUCACCGGUGCUUGGUACGUUAUAUUCAGCCGGUCUGAUGAGUCUUGGGGCAGACGAAACAGC [UGGGGC] :: 2.02

For each listed entry, give its normalized RNA/DNA level with ligand (log10).
1. GCUGUCACCGGUGCUUGGUACGUUAUAUUCAGCCGGUCUGAUGAGUCUUCUUGCAGACGAAACAGC [UCUUGC]
2. GCUGUCACCGGUGCUUGGUACGUUAUAUUCAGCCGGUCUGAUGAGUCUCGCACAAGACGAAACAGC [CGCACA]
3. GCUGUCACCGGUGCUUGGUACGUUAUAUUCAGCCGGUCUGAUGAGUCUAAUCGCAGACGAAACAGC [AAUCGC]
4. GCUGUCACCGGUGCUUGGUACGUUAUAUUCAGCCGGUCUGAUGAGUCUUACAUGAGACGAAACAGC [UACAUG]
5. GCUGUCACCGGUGCUUGGUACGUUAUAUUCAGCCGGUCUGAUGAGUCUUUCCUUAGACGAAACAGC [UUCCUU]
6. GCUGUCACCGGUGCUUGGUACGUUAUAUUCAGCCGGUCUGAUGAGUCUGUUAUUAGACGAAACAGC [GUUAUU]
7. GCUGUCACCGGUGCUUGGUACGUUAUAUUCAGCCGGUCUGAUGAGUCUCUAGGUAGACGAAACAGC [CUAGGU]

*A*
1. 2.01
2. 1.98
3. 2.01
4. 1.97
5. 2.03
6. 2.01
7. 2.05

Please state normalized RNA/DNA level with ligand (log10) for every variant in the list that follows.
1. GCUGUCACCGGUGCUUGGUACGUUAUAUUCAGCCGGUCUGAUGAGUCUGAGCUUAGACGAAACAGC [GAGCUU]
2. GCUGUCACCGGUGCUUGGUACGUUAUAUUCAGCCGGUCUGAUGAGUCUCCAUCAAGACGAAACAGC [CCAUCA]
3. GCUGUCACCGGUGCUUGGUACGUUAUAUUCAGCCGGUCUGAUGAGUCUCAAACGAGACGAAACAGC [CAAACG]

*A*
1. 2.04
2. 2.02
3. 2.03
